# Format: in vitro ADME, human
# settings: human, plasma, Fraction unbound; subject RIBO-003
attribute_measured: Fraction unbound
Answer with the value's number alone.

In one line, give reported Fraction unbound of the entry CN(C)C(=O)c1cc2cnc(Nc3ccc(N4CCNCC4)cn3)nc2n1C1CCCC1 [ribociclib] .
0.09

###

# Format: in vitro ADME, human
# settings: human, plasma, Fraction unbound; subject RIBO-002
attribute_measured: Fraction unbound
Answer with the value's number alone.

In one line, give reported Fraction unbound of the entry CN(C)C(=O)c1cc2cnc(Nc3ccc(N4CCNCC4)cn3)nc2n1C1CCCC1 [ribociclib] .
0.119

###

# Type: in vitro ADME, human
# settings: human, plasma, Fraction unbound; subject RIBO-001
attribute_measured: Fraction unbound
Answer with the value's number alone.

In one line, give reported Fraction unbound of the entry CN(C)C(=O)c1cc2cnc(Nc3ccc(N4CCNCC4)cn3)nc2n1C1CCCC1 [ribociclib] .
0.102

###

# Format: in vivo, human
# settings: human, CSF / unbound plasma, oral, 600 mg/day, CSF/unbound plasma concentration ratio, one patient; 0.63/0.49
attribute_measured: Kp

In one line, give reported Kp of the entry CN(C)C(=O)c1cc2cnc(Nc3ccc(N4CCNCC4)cn3)nc2n1C1CCCC1 .
1.29
